Data credit: patent US20120058118A1

Here, each record is paired with measured Aggregation inhibition (% inhibition at 26 µM) data.
- tested_target: human A-beta(1-40) peptide, monomeric (BAM) (human, biotin at the C-terminus in capture ELISA, SPR and TR-FRET; not biotinylated where coated directly (Example 7))
- procedure_details: cell-based or functional assay
Report the figure in % without appending any unit label.

[[record]]
binder = "reference VHH 2G6 (VHH, from WO2006/40153) VHH: QVKLEESGGGLVQPGGSLRLSCAASGFTFSNYWMYWVRQAPGKGLEWVSTISPRAANTYYADSVKGRFTISRDNAKNTLYLQMNSLEPDDTALYYCAKSLRYRDRPQSSDFLFWRQGTQVTVSS"
unit_of_measure = "%"
numeric_result = 29


Next up:
Summary for this binder, ABII60A10 = ABII050 (VHH) VHH: EVQLVESGGGLVQAGGSLRLSCAASGRTFNNYNMGWFRQAPGKEREFVAAVSRSGVSTYYADSVKGRFTISRDNAKNAVYLQMNSLKPEDTAIYYCGAAYRGTAINVRRSYDSWGQGTQVTVSS : Aggregation inhibition (% inhibition at 26 µM) is 80
